Parameter: fold change. Scope: all listed entries.
# protocol-details: survival after telomere uncapping, modulators, primary screen, cell-based (AID 1259312);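 note: virus expresses mutant telomerase RNA that uncaps telomeres and kills cells; compound added 2 days after infection so exposure lasts 3 days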
# setup-conditions: HCT116 + Ad-hTR-mut, MTT, 5 d; at 10 µM, hits give high values
In all, about 4,500 compounds went through this assay and about 200 (4.4%) were called active. Shown is part of a subset that was picked to be rich in actives.
Just the number, please, no unit after it.

INSERT INTO assay_data (compound, observable, recorded_number) VALUES
  ('O=[N+]([O-])c1ccc(N2CCN(S(=O)(=O)c3ccc(Cl)cc3)CC2)cc1', 'fold change', -1.84),
  ('O=C1/C(=C/c2ccc3c(c2)OCO3)CCc2ccccc21', 'fold change', -2.22),
  ('O=C1NC(=O)/C(=C\c2ccc(-c3cccc(C(F)(F)F)c3)o2)S1', 'fold change', -1.8),
  ('Cc1c(C(=O)OC(C)C)sc(NC(=O)C(F)(F)C(F)(F)C(F)(F)C(F)(F)F)c1C(=O)OC(C)C', 'fold change', -1.73),
  ('Cc1cccc(-c2cc(=O)c3cc(Br)ccc3o2)c1', 'fold change', 1.11);

Input: Data request, read-out fold change, for CCN(CC)CCCN1c2ccccc2Sc2ccc(C(F)(F)F)cc21
Output: 5.26

Input: Given the entry CCOC(=O)C1=C(C(=O)OCC)SC(=C2C(=S)C(C)(C)N(C)c3ccc(C)cc32)S1 , report its measured fold change.
Output: -1

Input: Tell me the measured fold change of NC(=O)c1c(NC(=O)CCC(=O)O)sc2c1CCCC2 , please.
Output: -1.38

Input: Any idea what fold change was measured for CC(=O)c1c(O)c(C)c(O)c2c1OC1=CC(=O)C(C(C)=O)C(=O)[C@@]12C (stereo not given in full) ?
Output: -1.06

Input: Param item = S=C(c1ccco1)N1CCOCC1 ; retrieve measured fold change.
Output: 1.24
